Test system: HEK-293T
Test: Incucyte cell viability with HEK293T; note: unitless GR value; below 1 slowed growth and below 0 cell loss
Assay type: toxicity, cell-based
Settings: human, 24 h, 10 µM, compound concentration 10 uM, replicate number 1
Note that class boundaries on Growth Rate are 0 (below -0.2), 1 (-0.2 to below 0.7), 2 (0.7 or more)

Q) Assign a category based on measured Growth Rate for O=C(Nc1cccc(Nc2nccc(Nc3cccc(C(F)(F)F)c3)n2)c1)C1CC1 [ANILINOPYRIMIDINE1] and give only the class name.
A) 0

Q) Assign a category based on measured Growth Rate for CCS(=O)(=O)Nc1cccc(Oc2cncc(Nc3ccc(I)cc3F)c2C(N)=O)c1 and give only the class name.
A) 2

Q) Assign a category based on measured Growth Rate for COc1cc(-c2cc(-c3cccc(O)c3)cnc2N)cc(OC)c1OC and give only the class name.
A) 0

Q) Assign a category based on measured Growth Rate for O=C1NCc2ccc3c(-c4cccc(Cl)c4)c[nH]c3c21 and give only the class name.
A) 1

Q) Assign a category based on measured Growth Rate for COc1nc2ccc([C@@](O)(c3ccccc3)C3CCN(C(C)=O)CC3)cc2c(Cl)c1Cc1ccc(-n2cccn2)cc1 [JNJ-54119936] and give only the class name.
A) 1

Q) Assign a category based on measured Growth Rate for CC(C)[C@H](C(=O)Nc1ccc(C(=O)NO)cc1)c1ccccc1 [AR-42] and give only the class name.
A) 2

###

Tested on: HEK-293T
Experiment: Incucyte cell viability with HEK293T; note: unitless GR value; below 1 slowed growth and below 0 cell loss
Type: toxicity, cell-based
Conditions: human, 18 h, 10 µM, compound concentration 10 uM, replicate number 2
assay-metric: Growth Rate
API note: the answer field is a bare number with no unit suffix.

Examples with answers:
NC(=O)c1ccc(-c2nc(-c3ccc4c(c3)OCCO4)c(-c3ccccn3)[nH]2)cc1 = 0.74
COc1ccccc1S(=O)(=O)Nc1ccc2c(c1)CN(C)C(=O)N2 = 0.98
O=C(Nc1ccc(S(=O)(=O)Nc2nccs2)cc1)C(c1ccccc1)c1ccccc1 = 0.82

// moving on: another record for Growth Rate
Q) What value of Growth Rate has been reported for the following compound? CC(=O)c1c(C)c2cnc(Nc3ccc(N4CCN(CCCCNC(=O)COc5cccc6c5C(=O)N(C5CCC(=O)NC5=O)C6=O)CC4)cn3)nc2n(C2CCCC2)c1=O (stereo not drawn)
A) 0.98

###

Test system: U2OS
Assay: Incucyte cell viability with U2OS; note: unitless GR value; below 1 slowed growth and below 0 cell loss
Assay type: toxicity, cell-based
Settings: human, 24 h, 10 µM, compound concentration 10 uM, replicate number 1
Decision: Growth Rate compared against 0.9; not below it gives Yes, below it gives No.

CCO[C@@H](Cc1ccc(OCCc2ccc(OS(C)(=O)=O)cc2)cc1)C(=O)O = No
N#Cc1cccc(-c2c[nH]c3ncnc(N4CCOCC4)c23)c1 = Yes
O=C(Nc1cc(-c2cn[nH]c2)ccc1N1CCOCC1)c1ccc(-c2ccc3ncccc3c2)o1 = No

Q) hey, is Growth Rate for this one >= 0.9? C[C@@H]1CN(CC(=O)N2CC(C)(C)c3nc(CO)c(Cc4ccc(F)cc4)cc32)[C@@H](CN2CCOC[C@H]2C)CN1
A) Yes

Q) hey, is Growth Rate for this one >= 0.9? CCn1c(-c2nonc2N)nc2c(C#CC(C)(C)O)ncc(OCC3CCCNC3)c21 (centres undefined)
A) Yes

Q) hey, is Growth Rate for this one >= 0.9? COCCNc1cc(NC(=O)N2CCCc3cc(CN4CCN(C)CC4=O)c(C=O)nc32)ncc1C#N
A) Yes

Q) hey, is Growth Rate for this one >= 0.9? CS(=O)(=O)O.C[C@H](NC(=O)c1cnc2n1[C@](C)(Cc1ccc(C#N)cc1)C(=O)N2c1cc(Cl)c(F)c(Cl)c1)C(=O)NC1(c2ccccn2)CC1
A) No

Q) hey, is Growth Rate for this one >= 0.9? Cc1nc(-c2ccc(C(F)(F)F)cc2)sc1C(=O)NCc1ccc(OC(C)(C)C(=O)O)cc1
A) Yes

Q) hey, is Growth Rate for this one >= 0.9? Cc1c(N2CCNCC2)nc2ccc(Br)cc2c1C(=O)NC[C@H](CCC(=O)O)c1ccccc1Cl
A) Yes

Q) hey, is Growth Rate for this one >= 0.9? C=CC(=O)Nc1cccc(C)c1Nc1ncc2cc(-c3c(Cl)c(OC)cc(OC)c3Cl)ccc2n1
A) No

Q) hey, is Growth Rate for this one >= 0.9? O=C1NC(=NCc2cccs2)SC1=Cc1ccc2ncccc2c1
A) No

Q) hey, is Growth Rate for this one >= 0.9? COc1c(OCCCN2CCOCC2)ccc2c1N=C(NC(=O)c1cnc(N)nc1)N1CCN=C21
A) Yes

Q) hey, is Growth Rate for this one >= 0.9? CC1(C)C(=O)N([C@H]2CCc3c(O)cccc32)c2nc(Nc3cccc(CN4CCCC4)c3)ncc21
A) No

Q) hey, is Growth Rate for this one >= 0.9? Nc1ncnc2c1ccn2[C@@H]1O[C@H]([C@@H](O)c2ccccc2)[C@@H](O)[C@H]1O
A) No

Q) hey, is Growth Rate for this one >= 0.9? COc1cc(-c2cn[nH]c2)ccc1C(=O)Nc1ccc2c(c1)CCNCC2.Cl
A) No
